Values from patent US11407717B2

Would you kindly list IC50 for each of these molecules?
# measurement-target: IDH1(R132C) (Homo sapiens, UniProt O75874, R132C)
# Sequence (O75874 whole entry R132C): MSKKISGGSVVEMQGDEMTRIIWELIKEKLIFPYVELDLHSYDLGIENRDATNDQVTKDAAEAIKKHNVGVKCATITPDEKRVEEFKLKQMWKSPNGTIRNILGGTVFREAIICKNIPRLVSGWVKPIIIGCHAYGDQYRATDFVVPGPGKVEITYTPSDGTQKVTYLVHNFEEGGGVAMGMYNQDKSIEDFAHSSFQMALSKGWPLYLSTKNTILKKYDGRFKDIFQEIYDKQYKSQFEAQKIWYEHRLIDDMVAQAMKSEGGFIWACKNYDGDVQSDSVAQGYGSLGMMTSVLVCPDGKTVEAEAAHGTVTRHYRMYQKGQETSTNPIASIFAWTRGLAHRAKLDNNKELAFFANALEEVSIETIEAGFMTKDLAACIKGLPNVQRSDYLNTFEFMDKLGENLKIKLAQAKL
# experiment-summary: IDH1 in vitro enzyme activity test (IDH1 R132C)
# condition-notes: 500 μM α-KG + 15 μM NADPH
Numbers only, in nM.

{"columns": ["item-smiles", "IC50 / nM"],
 "data": [
  ["C[C@H](c1ccccc1)n1c(Nc2ccc(OC(F)(F)F)cc2)nc2cc(CCC(=O)O)ccc21", 102]
]}

Sure, the documented IC50 for O=C(O)CCc1ccc2c(c1)nc(Nc1ccc(OC(F)(F)F)cc1)n2[C@@H]1CCCc2ccccc21 is 12.8
